Each recorded value in this set is attributed to patent US8927717B1.

# System: SW-620
# Format: cell-based
# experimental-context: SW-620; five dose
result-type: TGI

Completed entries (count: 4):
# molecule-smiles, TGI
rows = [
    ("CCNc1nc2ccccc2c2c(=O)c3cc(Cl)ccc3sc12", ">100 µM"),
    ("NCCNc1nc2ccccc2c2c(=O)c3cc(Cl)ccc3sc12", "3.42 µM"),
    ("O=c1c2cc(Cl)ccc2sc2c(NCCCNCCO)nc3ccccc3c12", "3.30 µM"),
    ("CN(C)CCNc1nc2ccccc2c2c(=O)c3cc(Cl)ccc3sc12", "3.29 µM"),
]

The recorded TGI for O=c1c2cc(Cl)ccc2sc2c(NCc3ccccc3)nc3ccccc3c12 is >100 µM

###

# Test system: SNB-75
# Format: cell-based
# experimental-context: SNB-75; five dose
Attribute: TGI
Please state the figure in µM; there is no need to write the unit.

# compound, tested-on, result-type, recorded-result
rows = [
    ("O=c1c2cc(Cl)ccc2sc2c(NCc3ccccc3)nc3ccccc3c12 [Compound N25]", "SNB-75", "TGI", 3.78),
    ("CN(C)CCNc1nc2ccccc2c2c(=O)c3cc(Cl)ccc3sc12 [Compound N7]", "SNB-75", "TGI", 3.69),
    ("O=c1c2cc(Cl)ccc2sc2c(NCCCNCCO)nc3ccccc3c12 [Compound N19]", "SNB-75", "TGI", 2.56),
    ("NCCNc1nc2ccccc2c2c(=O)c3cc(Cl)ccc3sc12 [Compound N14]", "SNB-75", "TGI", 2.31),
]

The recorded TGI for CCNc1nc2ccccc2c2c(=O)c3cc(Cl)ccc3sc12 [Compound N2] is 22.00

###

# Tested on: RXF 393
# Format: cell-based
# experimental-context: Renal cancer; 10^−5 molar; 48 hours; SRB
Lab note: compare Growth percent RXF 393 against 80%. Equal or greater, write Met. Smaller, write Not met.

Please review the entries below; each comes with its answer.
# compound, class-name
measured = [
    ("O=c1c2cc(Cl)ccc2sc2c(NCCO)nc3ccccc3c12 [Compound N9]", "Met"),
    ("O=c1c2ccc(Cl)cc2sc2c(Cl)nc3ccccc3c12 [Compound 3]", "Met"),
    ("CCC(CC)Nc1nc2ccccc2c2c(=O)c3cc(Cl)ccc3sc12 [Compound N6]", "Met"),
    ("NCCNc1nc2ccccc2c2c(=O)c3cc(Cl)ccc3sc12 [Compound N14]", "Not met"),
    ("CCC(CO)Nc1nc2ccccc2c2c(=O)c3cc(Cl)ccc3sc12 (stereo not shown) [Compound N12]", "Not met"),
]

(Q) Item CN(C)CCNc1nc2ccccc2c2c(=O)c3cc(Cl)ccc3sc12 [Compound N7] with Growth percent RXF 393 of 80% or above?
(A) Not met

(Q) Item CC(C)CC(C)Nc1nc2ccccc2c2c(=O)c3cc(Cl)ccc3sc12 (stereo not shown) [Compound N13] with Growth percent RXF 393 of 80% or above?
(A) Met

###

result-type: melting point

# molecule, melting point
measured = [
    ("COc1ccccc1CNc1nc2ccccc2c2c(=O)c3cc(Cl)ccc3sc12 [Compound N28]", "223 to 224 °C"),
    ("CCN(CC)CCNc1nc2ccccc2c2c(=O)c3cc(Cl)ccc3sc12 [Compound N8]", "152 to 153 °C"),
    ("O=c1c2cc(Cl)ccc2sc2c(NCCN3CCOCC3)nc3ccccc3c12 [Compound N16]", "189 to 190 °C"),
    ("O=c1c2cc(Cl)ccc2sc2c(NN3CCCCC3)nc3ccccc3c12 [Compound N34]", "180 to 181 °C"),
    ("O=c1c2cc(Cl)ccc2sc2c(N3CCCCC3)nc3ccccc3c12 [Compound 15]", "187 to 188 °C"),
]

The recorded melting point for CNc1nc2ccccc2c2c(=O)c3cc(Cl)ccc3sc12 [Compound N1] is 237 to 238 °C

The recorded melting point for O=c1c2cc(Cl)ccc2sc2c(NCc3cccs3)nc3ccccc3c12 [Compound N23] is 178 to 180 °C

The recorded melting point for CN1CCN(c2nc3ccccc3c3c(=O)c4cc(Cl)ccc4sc23)CC1 [Compound 8] is 212 to 214 °C

The recorded melting point for NC(N)=Nc1nc2ccccc2c2c(=O)c3cc(Cl)ccc3sc12 [Compound N33] is 370 °C (dec.)

###

# Tested on: NCI/ADR-RES
# Format: cell-based
# experimental-context: NCI/ADR-RES; five dose
result-type: TGI (µM)
Please state the figure in µM; there is no need to write the unit.

Completed entries (count: 2):
# molecule-smiles, unit-info, TGI
records = [
    ("O=c1c2cc(Cl)ccc2sc2c(NCCCNCCO)nc3ccccc3c12", "µM", 3.63),
    ("CN(C)CCNc1nc2ccccc2c2c(=O)c3cc(Cl)ccc3sc12", "µM", 3.17),
]

The recorded TGI for NCCNc1nc2ccccc2c2c(=O)c3cc(Cl)ccc3sc12 is 3.67

###

Attribute: Growth percent
# Tested on: SF-295
# Assay type: cell-based
# experimental-context: SF-295; 10^−5 molar
Please state the figure in %; there is no need to write the unit.

# molecule, tested-on, recorded-result
rows = [
    ("O=c1c2cc(Cl)ccc2sc2c(NC3CCCCC3)nc3ccccc3c12 [Compound N21]", "SF-295", 92.22),
    ("O=c1c2cc(Cl)ccc2sc2c(NCCN3CCOCC3)nc3ccccc3c12 [Compound N16]", "SF-295", 102.17),
    ("O=c1c2cc(Cl)ccc2sc2c(NCc3ccc4c(c3)OCO4)nc3ccccc3c12 [Compound N27]", "SF-295", 94.39),
    ("COc1ccc(CCNc2nc3ccccc3c3c(=O)c4cc(Cl)ccc4sc23)cc1 [Compound N31]", "SF-295", 95.31),
    ("O=c1c2cc(Cl)ccc2sc2c(NCCCNCCO)nc3ccccc3c12 [Compound N19]", "SF-295", "−93.00"),
]

The recorded Growth percent for CN(C)CCCNc1nc2ccccc2c2c(=O)c3cc(Cl)ccc3sc12 [Compound N17] is 95.14

The recorded Growth percent for O=c1c2cc(Cl)ccc2sc2c(NCc3ccccc3)nc3ccccc3c12 [Compound N25] is 74.33

The recorded Growth percent for O=c1c2cc(Cl)ccc2sc2c(NCCc3ccccc3)nc3ccccc3c12 [Compound N30] is 95.46

###

# Test system: CAKI-1
# Format: cell-based
# experimental-context: CAKI-1; 10^−5 molar
Attribute: Growth percent
Please state the figure in %; there is no need to write the unit.

Completed entries (count: 4):
# molecule-smiles, Growth percent (%)
rows = [
    ("O=c1c2cc(Cl)ccc2sc2c(NCCc3ccccc3)nc3ccccc3c12", 81.04),
    ("O=c1c2cc(Cl)ccc2sc2c(NC3CCCCC3)nc3ccccc3c12", 72.76),
    ("O=c1c2cc(Cl)ccc2sc2c(NCc3ccc4c(c3)OCO4)nc3ccccc3c12", 75.09),
    ("CN(C)CCCNc1nc2ccccc2c2c(=O)c3cc(Cl)ccc3sc12", 84.31),
]

The recorded Growth percent for O=c1c2cc(Cl)ccc2sc2c(NCc3ccccc3)nc3ccccc3c12 is 80.38

The recorded Growth percent for COc1ccc(CCNc2nc3ccccc3c3c(=O)c4cc(Cl)ccc4sc23)cc1 is 85.75

###

# System: SF-268
# Assay type: cell-based
# experimental-context: SF-268; five dose
result-type: TGI

Completed entries (count: 4):
# molecule-smiles, tested-on, recorded-result
rows = [
    ("O=c1c2cc(Cl)ccc2sc2c(NCc3ccccc3)nc3ccccc3c12", "SF-268", ">100 µM"),
    ("O=c1c2cc(Cl)ccc2sc2c(NCCCNCCO)nc3ccccc3c12", "SF-268", "3.35 µM"),
    ("CCNc1nc2ccccc2c2c(=O)c3cc(Cl)ccc3sc12", "SF-268", ">100 µM"),
    ("NCCNc1nc2ccccc2c2c(=O)c3cc(Cl)ccc3sc12", "SF-268", "3.23 µM"),
]

Turning to the following molecule.
The recorded TGI for CN(C)CCNc1nc2ccccc2c2c(=O)c3cc(Cl)ccc3sc12 is 3.16 µM

###

Attribute: Growth percent
# Test system: SR
# Assay type: cell-based
# experimental-context: SR; 10^−5 molar
Please state the figure in %; there is no need to write the unit.

# molecule-smiles, unit-info, Growth percent
records = [
    ("O=c1c2cc(Cl)ccc2sc2c(NCCN3CCOCC3)nc3ccccc3c12", "%", 67.74),
]

The recorded Growth percent for O=c1c2cc(Cl)ccc2sc2c(NCc3ccccc3)nc3ccccc3c12 is 85.46
